The reported numbers originate from patent US20070077617.

EXPERIMENTAL SYSTEM: fusion protein PRN
Sequence (chain, as listed by the source): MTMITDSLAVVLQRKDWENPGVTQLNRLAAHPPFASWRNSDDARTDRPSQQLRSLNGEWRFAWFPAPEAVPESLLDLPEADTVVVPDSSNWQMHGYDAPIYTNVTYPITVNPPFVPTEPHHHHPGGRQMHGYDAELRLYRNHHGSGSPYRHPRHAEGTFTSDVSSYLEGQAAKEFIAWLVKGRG

>  <PROTEIN>
OmpT protease variant OmpT D97E (protein) STETLSFTPDNINADISLGTLSGKTKERVYLAEEGGRKVSQLDWKFNNAAIIKGAINWDLMPQISIGAAGWTTLGSRGGNMVDQDWMDSSNPGTWTEESRHPDTQLNYANEFDLNIKGWLLNEPNYRLGLMAGYQESRYSFTARGGSYIYSSEEGFRDDIGSFPNGERAIGYKQRFKMPYIGLTGSYRYEDFELGGTFKYSGWVESSDNDEHYDPGKRITYRSKVKDQNYYSVAVNAGYYVTPNAKVYVEGAWNRVTNKKGNTSLYDHNNNTSDYSKNGAGIENYNFITTAGLKYTF

>  <relative cleavage efficiency>
< 3%

$$$$
>  <PROTEIN>
OmpT protease variant OmpT D97N (protein) STETLSFTPDNINADISLGTLSGKTKERVYLAEEGGRKVSQLDWKFNNAAIIKGAINWDLMPQISIGAAGWTTLGSRGGNMVDQDWMDSSNPGTWTNESRHPDTQLNYANEFDLNIKGWLLNEPNYRLGLMAGYQESRYSFTARGGSYIYSSEEGFRDDIGSFPNGERAIGYKQRFKMPYIGLTGSYRYEDFELGGTFKYSGWVESSDNDEHYDPGKRITYRSKVKDQNYYSVAVNAGYYVTPNAKVYVEGAWNRVTNKKGNTSLYDHNNNTSDYSKNGAGIENYNFITTAGLKYTF

>  <relative cleavage efficiency>
< 3%

$$$$
